- System: Salmonella Typhimurium TA 100
- Assay info: Ames test for mutagenicity (plate assay, colony count)
- Recorded conditions: (+)S9 mix, 10 mg/pl., 48 hours at 37° C.
Measured metric: Ames test (+)S9 10 mg/pl.

Example results:
Cc1ccc2c(C(=O)O)nn(Cc3ccc(Cl)cc3Cl)c2c1    Pass
O=C(O)/C=C/c1nn(Cc2ccc(Cl)cc2Cl)c2cc(C(F)(F)F)ccc12    Pass
O=C(O)/C=C/c1nn(Cc2ccc(Cl)cc2Cl)c2ncccc12    Fail
O=C(O)c1nn(Cc2ccc(F)cc2F)c2cc(Cl)ccc12    Fail
COC(=O)c1nn(Cc2ccc(Cl)cc2Cl)c2cc(C(F)(F)F)cnc12    Pass

Ames test (+)S9 10 mg/pl. in this record for O=C(O)c1nn(Cc2ccc(Cl)cc2Cl)c2cc(F)ccc12 : Pass

Ames test (+)S9 10 mg/pl. in this record for COc1ccc2c(n1)c(C(=O)O)nn2Cc1ccc(Cl)cc1Cl : Pass

Ames test (+)S9 10 mg/pl. in this record for COC(=O)c1nn(Cc2ccc(Cl)cc2Cl)c2cnccc12 : Pass

Ames test (+)S9 10 mg/pl. in this record for O=C(O)/C=C/c1nn(Cc2ccc(Cl)cc2Cl)c2cc(F)ccc12 : Pass

----------
- Tested on: Salmonella Typhimurium TA 100
- Assay info: Ames test for mutagenicity (plate assay, colony count)
- Recorded conditions: (−)S9 mix, 1 mg/pl., 48 hours at 37° C.
Measured metric: Ames test (−)S9 1 mg/pl.

O=C(O)/C=C/c1nn(Cc2ccc(F)cc2F)c2cc(Cl)ccc12 [JWS-1-298]    Fail
O=C(O)c1nn(Cc2ccc(F)cc2Cl)c2cc(Cl)ccc12 [JWS-2-20]    Fail
COC(=O)c1nn(Cc2ccc(Cl)cc2Cl)c2ccc(C(F)(F)F)cc12 [JWS-1-254]    Pass
COC(=O)c1nn(Cc2ccc(F)cc2Cl)c2cc(Cl)ccc12 [JWS-2-18]    Pass
NNC(=O)c1nn(Cc2ccc(Cl)cc2Cl)c2ncccc12 [RC-MC-60]    Pass

Ames test (−)S9 1 mg/pl. in this record for Cc1ccc2c(C(=O)O)nn(Cc3ccc(Cl)cc3Cl)c2c1 [TH-2-178] : Pass

Ames test (−)S9 1 mg/pl. in this record for O=C(O)/C=C/c1nn(Cc2ccc(F)cc2F)c2cc(C(F)(F)F)ccc12 [JWS-1-294] : Pass

Ames test (−)S9 1 mg/pl. in this record for COC(=O)c1nn(Cc2ccc(F)cc2F)c2cc(C(F)(F)F)ccc12 [JWS-1-270] : Pass

Ames test (−)S9 1 mg/pl. in this record for O=C(O)c1nn(Cc2ccc(Cl)cc2Cl)c2cccnc12 [JWS-1-114] : Pass

Ames test (−)S9 1 mg/pl. in this record for COC(=O)C=Cc1nn(Cc2ccc(Cl)cc2Cl)c2cc(C(F)(F)F)ccc12 [RC-MC-200] : Pass

----------
- Tested on: Male Long Evans rats
- Assay info: In vivo antispermatogenic testing in Long Evans rats
- Recorded conditions: 25 mg/kg single i.p. injection; animals responding out of animals surviving; five days following injection
Catalogue of Response 25 mg/kg values

O=C(O)c1nn(Cc2ccc(Cl)cc2Cl)c2ncccc12    0/5
COC(=O)c1nn(Cc2ccc(Cl)cc2Cl)c2cc(F)ccc12    4/5
NNC(=O)c1nn(Cc2ccc(F)cc2F)c2cc(C(F)(F)F)ccc12    0/5
COC(=O)c1nn(Cc2ccc(F)cc2F)c2cc(Cl)ccc12    0/5
COC(=O)c1nn(Cc2ccc(Cl)cc2Cl)c2ccccc12    3/5

Then there is this molecule:
Response 25 mg/kg in this record for O=C(O)c1nn(Cc2ccc(Cl)cc2Cl)c2cccnc12 : 1/5

----------
- Test system: Salmonella Typhimurium TA 100
- Assay info: Ames test for mutagenicity (plate assay, colony count)
- Recorded conditions: (−)S9 mix, 10 mg/pl., 48 hours at 37° C.
Measured metric: Ames test (−)S9 10 mg/pl.

Example results:
COC(=O)c1nn(Cc2ccc(Cl)cc2Cl)c2cc(C(F)(F)F)cnc12    Pass
O=C(O)/C=C/c1nn(Cc2ccc(Cl)cc2Cl)c2cc(F)ccc12    Pass
O=C(O)c1nn(Cc2ccc(Cl)cc2Cl)c2ccc(C(F)(F)F)cc12    Pass
O=C(O)/C=C/c1nn(Cc2ccc(Cl)cc2Cl)c2cc(C(F)(F)F)ccc12    Pass

Ames test (−)S9 10 mg/pl. in this record for COC(=O)c1nn(Cc2ccc(F)cc2F)c2ccc(C(F)(F)F)cc12 : Fail

Ames test (−)S9 10 mg/pl. in this record for NNC(=O)c1nn(Cc2ccc(Cl)cc2Cl)c2cc(Cl)ccc12 : Pass

Ames test (−)S9 10 mg/pl. in this record for O=C(O)c1nn(Cc2ccc(F)cc2Cl)c2cc(C(F)(F)F)ccc12 : Fail

Ames test (−)S9 10 mg/pl. in this record for NNC(=O)c1nn(Cc2ccc(Cl)cc2Cl)c2ncccc12 : Pass

Ames test (−)S9 10 mg/pl. in this record for O=C(O)/C=C/c1nn(Cc2ccc(F)cc2F)c2cc(C(F)(F)F)ccc12 : Pass

Ames test (−)S9 10 mg/pl. in this record for O=C(O)/C=C/c1nn(Cc2ccc(F)cc2Cl)c2cc(Cl)ccc12 : Pass

Ames test (−)S9 10 mg/pl. in this record for COC(=O)c1nn(Cc2ccc(Cl)cc2Cl)c2ccccc12 : Pass

----------
- Test system: Male Long Evans rats
- Assay info: In vivo antispermatogenic testing in Long Evans rats
- Recorded conditions: 25 mg/kg single i.p. injection; animals responding out of animals surviving; five days following injection
Catalogue of Response 25 mg/kg values

Example results:
O=C(O)c1nn(Cc2ccc(Cl)cc2Cl)c2cc(C(F)(F)F)ccc12 [RC-MC-100]    0/5
NNC(=O)c1nn(Cc2ccc(Cl)cc2Cl)c2cc(F)ccc12 [JWS-1-160]    3/5
O=C(O)c1nn(Cc2ccc(Cl)cc2Cl)c2ccccc12 [Lonidamine]    2/5
O=C(O)c1nn(Cc2ccc(F)cc2F)c2cc(C(F)(F)F)ccc12 [JWS-1-276]    0/5

Then there is this compound:
Response 25 mg/kg in this record for CCOC(=O)c1nn(Cc2ccc(Cl)cc2Cl)c2ccccc12 [RC-MC-156] : 2/5

// data source = patent US8362031B2
